Target: T1, TNFR1 (Homo sapiens, UniProt P19438)
T1 chain: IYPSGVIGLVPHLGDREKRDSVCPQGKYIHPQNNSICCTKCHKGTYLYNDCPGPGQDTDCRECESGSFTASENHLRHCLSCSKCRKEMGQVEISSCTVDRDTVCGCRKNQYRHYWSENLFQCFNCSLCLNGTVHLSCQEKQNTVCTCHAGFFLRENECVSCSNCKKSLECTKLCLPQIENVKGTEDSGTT
Assay: yeast display SC50
// boundary case: apparent Kd (screen) equal to 1 nM maps to no; strictly smaller maps to yes

The following binders have reported results that may help.
Asked: Does the reported apparent Kd (screen) of R96L (designed binder) SMEEEVEKAAKEYEKKKKEAIEKHLEKLKAKDKEAAERFLKELEEAAKEYAKDEAKTMSEEEAKRRAKKYKEKVLLSELSEEEQKEIKEAEEKLVLTILKYVEEAAK stay below 1 nM?
Given back: yes

Asked: Identify whether the binder E61L (designed binder) SMEEEVEKAAKEYEKKKKEAIEKHLEKLKAKDKEAAERFLKELEEAAKEYAKDEAKTMSELEAKRRAKKYKEKVLLSELSEEEQKEIKEAEEKLVRTILKYVEEAAK records apparent Kd (screen) below 1 nM.
Given back: no

Asked: Please state whether apparent Kd (screen) is below 1 nM for A90C (designed binder) SMEEEVEKAAKEYEKKKKEAIEKHLEKLKAKDKEAAERFLKELEEAAKEYAKDEAKTMSEEEAKRRAKKYKEKVLLSELSEEEQKEIKECEEKLVRTILKYVEEAAK
Given back: yes

Asked: Determine if A36S (designed binder) SMEEEVEKAAKEYEKKKKEAIEKHLEKLKAKDKEASERFLKELEEAAKEYAKDEAKTMSEEEAKRRAKKYKEKVLLSELSEEEQKEIKEAEEKLVRTILKYVEEAAK shows apparent Kd (screen) strictly lower than 1 nM.
Given back: no

Asked: Answer whether the binder E7P (designed binder) SMEEEVPKAAKEYEKKKKEAIEKHLEKLKAKDKEAAERFLKELEEAAKEYAKDEAKTMSEEEAKRRAKKYKEKVLLSELSEEEQKEIKEAEEKLVRTILKYVEEAAK has apparent Kd (screen) strictly less than 1 nM
Given back: no

Asked: Lab log: compare recorded apparent Kd (screen) with 1 nM; is it strictly lower for E7W (designed binder) SMEEEVWKAAKEYEKKKKEAIEKHLEKLKAKDKEAAERFLKELEEAAKEYAKDEAKTMSEEEAKRRAKKYKEKVLLSELSEEEQKEIKEAEEKLVRTILKYVEEAAK ?
Given back: no

Asked: Please state whether apparent Kd (screen) is below 1 nM for E26R (designed binder) SMEEEVEKAAKEYEKKKKEAIEKHLRKLKAKDKEAAERFLKELEEAAKEYAKDEAKTMSEEEAKRRAKKYKEKVLLSELSEEEQKEIKEAEEKLVRTILKYVEEAAK
Given back: yes

Asked: Record K23G (designed binder) SMEEEVEKAAKEYEKKKKEAIEGHLEKLKAKDKEAAERFLKELEEAAKEYAKDEAKTMSEEEAKRRAKKYKEKVLLSELSEEEQKEIKEAEEKLVRTILKYVEEAAK : is its apparent Kd (screen) strictly below 1 nM?
Given back: yes

Asked: Item Y13W (designed binder) SMEEEVEKAAKEWEKKKKEAIEKHLEKLKAKDKEAAERFLKELEEAAKEYAKDEAKTMSEEEAKRRAKKYKEKVLLSELSEEEQKEIKEAEEKLVRTILKYVEEAAK : apparent Kd (screen) beneath 1 nM, strictly?
Given back: no

Asked: # strict comparison: is reported apparent Kd (screen) < 1 nM? input = Y13A (designed binder) SMEEEVEKAAKEAEKKKKEAIEKHLEKLKAKDKEAAERFLKELEEAAKEYAKDEAKTMSEEEAKRRAKKYKEKVLLSELSEEEQKEIKEAEEKLVRTILKYVEEAAK
Given back: yes

New cases:
Asked: Does this binder meet the criterion apparent Kd (screen) < 1 nM? K27Q (designed binder) SMEEEVEKAAKEYEKKKKEAIEKHLEQLKAKDKEAAERFLKELEEAAKEYAKDEAKTMSEEEAKRRAKKYKEKVLLSELSEEEQKEIKEAEEKLVRTILKYVEEAAK
Given back: yes

Asked: Threshold test, apparent Kd (screen) < 1 nM: V95L (designed binder) SMEEEVEKAAKEYEKKKKEAIEKHLEKLKAKDKEAAERFLKELEEAAKEYAKDEAKTMSEEEAKRRAKKYKEKVLLSELSEEEQKEIKEAEEKLLRTILKYVEEAAK
Given back: no

Asked: Hello, is apparent Kd (screen) of the following binder strictly smaller than 1 nM? S59R (designed binder) SMEEEVEKAAKEYEKKKKEAIEKHLEKLKAKDKEAAERFLKELEEAAKEYAKDEAKTMREEEAKRRAKKYKEKVLLSELSEEEQKEIKEAEEKLVRTILKYVEEAAK
Given back: no

Asked: Strictly below 1 nM in apparent Kd (screen)? A35K (designed binder) SMEEEVEKAAKEYEKKKKEAIEKHLEKLKAKDKEKAERFLKELEEAAKEYAKDEAKTMSEEEAKRRAKKYKEKVLLSELSEEEQKEIKEAEEKLVRTILKYVEEAAK
Given back: yes

Asked: Confirm or reject: apparent Kd (screen) of K17V (designed binder) SMEEEVEKAAKEYEKKVKEAIEKHLEKLKAKDKEAAERFLKELEEAAKEYAKDEAKTMSEEEAKRRAKKYKEKVLLSELSEEEQKEIKEAEEKLVRTILKYVEEAAK lies strictly below 1 nM
Given back: yes

Asked: I'd appreciate it if you could check whether L94A (designed binder) SMEEEVEKAAKEYEKKKKEAIEKHLEKLKAKDKEAAERFLKELEEAAKEYAKDEAKTMSEEEAKRRAKKYKEKVLLSELSEEEQKEIKEAEEKAVRTILKYVEEAAK has apparent Kd (screen) smaller than 1 nM.
Given back: yes
